conditions: in water, 278.2 K

>  <molecule>
Cc1nnc(C(C)C)n1C1C[C@H]2CC[C@@H](C1)N2CC[C@H](NC(=O)C1CCC(F)(F)CC1)c1ccccc1 (stereo partly specified)

>  <solubility (mole fraction)>
6e-06

$$$$

---

conditions: in water, 283.2 K

>  <compound>
Cc1nnc(C(C)C)n1C1C[C@H]2CC[C@@H](C1)N2CC[C@H](NC(=O)C1CCC(F)(F)CC1)c1ccccc1 (stereo partly specified)

>  <solubility (mole fraction)>
9e-06

$$$$

---

conditions: in DMF, 318.2 K
measurement type: solubility (mole fraction)

>  <compound>
Cc1nnc(C(C)C)n1C1C[C@H]2CC[C@@H](C1)N2CC[C@H](NC(=O)C1CCC(F)(F)CC1)c1ccccc1 (some centres not stated)

>  <recorded result>
0.000689

$$$$
>  <compound>
O=C(Nc1c(Cl)cncc1Cl)c1ccc(OC(F)F)c(OCC2CC2)c1

>  <recorded result>
8.6e-05

$$$$

---

conditions: in 2-butanone, 288.2 K
Listed compounds paired with reported solubility (mole fraction)
measurement type: solubility (mole fraction)

>  <compound>
Cc1nnc(C(C)C)n1C1C[C@H]2CC[C@@H](C1)N2CC[C@H](NC(=O)C1CCC(F)(F)CC1)c1ccccc1 (some centres not stated)

>  <measurement type>
solubility (mole fraction)

>  <recorded result>
0.000349

$$$$
>  <compound>
O=C(Nc1c(Cl)cncc1Cl)c1ccc(OC(F)F)c(OCC2CC2)c1

>  <measurement type>
solubility (mole fraction)

>  <recorded result>
0.000165

$$$$

---

details: in DMF, 303.2 K
solubility (mole fraction): recorded values
measurement type: solubility (mole fraction)

>  <compound>
Cc1nnc(C(C)C)n1C1C[C@H]2CC[C@@H](C1)N2CC[C@H](NC(=O)C1CCC(F)(F)CC1)c1ccccc1 (some centres not stated)

>  <recorded result>
0.000244

$$$$
>  <compound>
O=C(Nc1c(Cl)cncc1Cl)c1ccc(OC(F)F)c(OCC2CC2)c1

>  <recorded result>
3.1e-05

$$$$

---

details: in 2-pentanone, 318.2 K

>  <compound>
Cc1nnc(C(C)C)n1C1C[C@H]2CC[C@@H](C1)N2CC[C@H](NC(=O)C1CCC(F)(F)CC1)c1ccccc1 (some centres not stated)

>  <solubility (mole fraction)>
0.00229

$$$$
>  <compound>
O=C(Nc1c(Cl)cncc1Cl)c1ccc(OC(F)F)c(OCC2CC2)c1

>  <solubility (mole fraction)>
0.000756

$$$$

---

settings: in ethanol, 288.2 K
Property: solubility (mole fraction); scope: individual compounds

>  <compound>
Cc1nnc(C(C)C)n1C1C[C@H]2CC[C@@H](C1)N2CC[C@H](NC(=O)C1CCC(F)(F)CC1)c1ccccc1 (some centres not stated)

>  <solubility (mole fraction)>
0.00052

$$$$
>  <compound>
O=C(Nc1c(Cl)cncc1Cl)c1ccc(OC(F)F)c(OCC2CC2)c1

>  <solubility (mole fraction)>
0.000106

$$$$

---

settings: in ethanol, 298.2 K

>  <compound>
O=C(Nc1c(Cl)cncc1Cl)c1ccc(OC(F)F)c(OCC2CC2)c1

>  <solubility (mole fraction)>
0.000208

$$$$
>  <compound>
Cc1nnc(C(C)C)n1C1C[C@H]2CC[C@@H](C1)N2CC[C@H](NC(=O)C1CCC(F)(F)CC1)c1ccccc1 (some centres not stated)

>  <solubility (mole fraction)>
0.00102

$$$$

---

details: in 2-butanone, 293.2 K
Recorded solubility (mole fraction) by entry
measurement type: solubility (mole fraction)

>  <molecule>
Cc1nnc(C(C)C)n1C1C[C@H]2CC[C@@H](C1)N2CC[C@H](NC(=O)C1CCC(F)(F)CC1)c1ccccc1 (some centres not stated)

>  <measurement type>
solubility (mole fraction)

>  <recorded result>
0.000491

$$$$
>  <molecule>
O=C(Nc1c(Cl)cncc1Cl)c1ccc(OC(F)F)c(OCC2CC2)c1

>  <measurement type>
solubility (mole fraction)

>  <recorded result>
0.000204

$$$$

---

details: in ethanol, 283.2 K
Reported solubility (mole fraction) values for a set of molecules

>  <molecule>
Cc1nnc(C(C)C)n1C1C[C@H]2CC[C@@H](C1)N2CC[C@H](NC(=O)C1CCC(F)(F)CC1)c1ccccc1 (some centres not stated)

>  <solubility (mole fraction)>
0.000404

$$$$
>  <molecule>
O=C(Nc1c(Cl)cncc1Cl)c1ccc(OC(F)F)c(OCC2CC2)c1

>  <solubility (mole fraction)>
8.8e-05

$$$$

---

conditions: in 2-pentanone, 308.2 K
Entries annotated with measured solubility (mole fraction)

>  <compound>
Cc1nnc(C(C)C)n1C1C[C@H]2CC[C@@H](C1)N2CC[C@H](NC(=O)C1CCC(F)(F)CC1)c1ccccc1 (some centres not stated)

>  <solubility (mole fraction)>
0.00119

$$$$
>  <compound>
O=C(Nc1c(Cl)cncc1Cl)c1ccc(OC(F)F)c(OCC2CC2)c1

>  <solubility (mole fraction)>
0.000402

$$$$

---

details: in DMF, 313.2 K
Here, each record is paired with measured solubility (mole fraction) data.
measurement type: solubility (mole fraction)

>  <molecule>
Cc1nnc(C(C)C)n1C1C[C@H]2CC[C@@H](C1)N2CC[C@H](NC(=O)C1CCC(F)(F)CC1)c1ccccc1 (some centres not stated)

>  <measurement type>
solubility (mole fraction)

>  <recorded result>
0.000507

$$$$
>  <molecule>
O=C(Nc1c(Cl)cncc1Cl)c1ccc(OC(F)F)c(OCC2CC2)c1

>  <measurement type>
solubility (mole fraction)

>  <recorded result>
6.1e-05

$$$$

---

settings: in n-propanol, 308.2 K

>  <compound>
O=C(Nc1c(Cl)cncc1Cl)c1ccc(OC(F)F)c(OCC2CC2)c1

>  <solubility (mole fraction)>
0.000328

$$$$
>  <compound>
Cc1nnc(C(C)C)n1C1C[C@H]2CC[C@@H](C1)N2CC[C@H](NC(=O)C1CCC(F)(F)CC1)c1ccccc1 (some centres not stated)

>  <solubility (mole fraction)>
0.00167

$$$$

---

details: in DMSO, 288.2 K
# Lookup of reported solubility (mole fraction) keyed by entry
measurement type: solubility (mole fraction)

>  <molecule>
O=C(Nc1c(Cl)cncc1Cl)c1ccc(OC(F)F)c(OCC2CC2)c1

>  <recorded result>
6.3e-05

$$$$
>  <molecule>
Cc1nnc(C(C)C)n1C1C[C@H]2CC[C@@H](C1)N2CC[C@H](NC(=O)C1CCC(F)(F)CC1)c1ccccc1 (some centres not stated)

>  <recorded result>
3.7e-05

$$$$

---

settings: in n-butanol, 303.2 K
Listed compounds paired with reported solubility (mole fraction)

>  <compound>
Cc1nnc(C(C)C)n1C1C[C@H]2CC[C@@H](C1)N2CC[C@H](NC(=O)C1CCC(F)(F)CC1)c1ccccc1 (some centres not stated)

>  <solubility (mole fraction)>
0.00112

$$$$
>  <compound>
O=C(Nc1c(Cl)cncc1Cl)c1ccc(OC(F)F)c(OCC2CC2)c1

>  <solubility (mole fraction)>
0.000226

$$$$

---

conditions: in n-propanol, 278.2 K
measurement type: solubility (mole fraction)

>  <compound>
Cc1nnc(C(C)C)n1C1C[C@H]2CC[C@@H](C1)N2CC[C@H](NC(=O)C1CCC(F)(F)CC1)c1ccccc1 (some centres not stated)

>  <measurement type>
solubility (mole fraction)

>  <recorded result>
0.00021

$$$$
>  <compound>
O=C(Nc1c(Cl)cncc1Cl)c1ccc(OC(F)F)c(OCC2CC2)c1

>  <measurement type>
solubility (mole fraction)

>  <recorded result>
4.9e-05

$$$$

---

details: in DMF, 283.2 K

>  <compound>
O=C(Nc1c(Cl)cncc1Cl)c1ccc(OC(F)F)c(OCC2CC2)c1

>  <solubility (mole fraction)>
6e-06

$$$$
>  <compound>
Cc1nnc(C(C)C)n1C1C[C@H]2CC[C@@H](C1)N2CC[C@H](NC(=O)C1CCC(F)(F)CC1)c1ccccc1 (some centres not stated)

>  <solubility (mole fraction)>
5.6e-05

$$$$

---

conditions: in 2-butanone, 278.2 K
Below, each of the compounds is paired with its reported solubility (mole fraction) value.

>  <compound>
O=C(Nc1c(Cl)cncc1Cl)c1ccc(OC(F)F)c(OCC2CC2)c1

>  <solubility (mole fraction)>
0.000102

$$$$
>  <compound>
Cc1nnc(C(C)C)n1C1C[C@H]2CC[C@@H](C1)N2CC[C@H](NC(=O)C1CCC(F)(F)CC1)c1ccccc1 (some centres not stated)

>  <solubility (mole fraction)>
0.000179

$$$$

---

settings: in water, 323.2 K

>  <molecule>
Cc1nnc(C(C)C)n1C1C[C@H]2CC[C@@H](C1)N2CC[C@H](NC(=O)C1CCC(F)(F)CC1)c1ccccc1 (stereo partly specified)

>  <solubility (mole fraction)>
0.000129

$$$$

---

Examples of compounds with documented solubility (mole fraction) follow.
conditions: in n-butanol, 323.2 K

>  <compound>
Cc1nnc(C(C)C)n1C1C[C@H]2CC[C@@H](C1)N2CC[C@H](NC(=O)C1CCC(F)(F)CC1)c1ccccc1 (some centres not stated)

>  <solubility (mole fraction)>
0.00387

$$$$
>  <compound>
O=C(Nc1c(Cl)cncc1Cl)c1ccc(OC(F)F)c(OCC2CC2)c1

>  <solubility (mole fraction)>
0.000782

$$$$
